ASSAY NAME: qHTS of pediatric cancer cell lines to identify multiple opportunities for drug repurposing: Primary screen for NB1643 cells (AID 1347099); further: nearly all actives have a fitted effect of over 50% in size
CONDITION LABEL: NB1643 neuroblastoma viability, CellTiter-Glo luminescence, 48 h; series mostly up to 46 µM
Results filed as inconclusive are left out. Active and inactive are the calls of the source. The call rests on the fitted dose curve; in most records, active means well fitted cell-killing curve with a large enough effect; inconclusive means small, poorly fitted or top-dose-only effect; inactive means no such curve, though single readings can be large or run the other way.
Returns: one label drawn from true (1) for active, false (0) for inactive

Query :: Called result for "CN(CCOc1ccc(NS(C)(=O)=O)cc1)CCc1ccc(NS(C)(=O)=O)cc1"
Result :: false (0)

Query :: Test call for this compound, please: "O=c1[nH]cc(F)c(=O)[nH]1"
Result :: true (1)

Query :: Assay outcome for "CN1CCC(=C2c3ccccc3CC(=O)c3sccc32)CC1" : what was it?
Result :: false (0)
